Origin of the recorded values: ChEMBL document CHEMBL4513216

tested on: Plasmodium berghei; experiment: Screen against P. berghei liver stage (PbLuc), transformed with Luciferase, at 10uM; assay type: functional, HepG2; details: tested at 10 uM
The whole screen tested about 69,000 compounds, of which about 8,600 (12%) showed an effect of 50% or more. Shown is part of a subset that was picked to be rich in strong results.
Measured INHIBITION, listed per entry for reference.
PROPERTY_LABEL: INHIBITION (%)

1) Cn1nc(Cn2cccn2)c2c1CN(Cc1ccoc1)C2 : 20.1
2) COc1c(CNC(c2ccccc2)c2ccc(F)cc2)c(C)nn1C (centres undefined) : 35.4
3) CC(C)NC(=O)[C@@H]1CN(C)C[C@]12COc1ccc(F)cc1C2=O : 12.515
4) NC(=O)CN1CCC(c2cncc(-c3cccc(Cl)c3)n2)CC1 : -40.6
5) CC(C)CN1C[C@H]2CCN(Cc3cccnc3)CC[C@H]2S1(=O)=O : 42.1
6) O=C(NCC(Cc1cccc(F)c1)N1CCCC1=O)c1ccc[nH]c1=O (centres undefined) : 3.88
7) OCCCN1CCc2[nH]nc(C(c3ccccc3)c3ccccc3)c2C1 : 18.7
8) CN1[C@H](Cn2cncn2)C[C@@H]2CN(Cc3ccsc3)CC[C@@H]21 : 54.8
9) CN(Cc1cccnc1)CC1CC12CCCC2 (centres undefined) : 60.9
10) Cc1ncsc1C(=O)Nc1cccc(OCC(F)F)n1 : 17.4
11) CN(Cc1cc(C(C)(C)C)n[nH]1)C(=O)c1c[nH]nc1-c1cccc(F)c1 : 30.4
12) COCc1cn(C2CCN(Cc3ccc(Cl)s3)CC2)nn1 : 5.23
13) CCc1cc(O)n2nc(C3CCCN3C(=O)c3ccccn3)cc2n1 (centres undefined) : 18.85
14) Cc1nc(C2CCCN2C(=O)Cc2ccc3c(c2)OCO3)nc(O)c1C (centres undefined) : 22
15) CN(Cc1cccnc1)[C@@H]1CN(C(=O)NC2CC2)[C@@H]2CCCO[C@H]12 : 32.2
16) CC(C)N1[C@H](Cn2cncn2)C[C@@H]2CN(Cc3ccsc3)CC[C@@H]21 : 47.5
17) O=C1NCC(C(=O)Nc2ccc(=O)n(Cc3ccccc3Cl)c2)N1 (centres undefined) : 26.8
18) CC(C)N1[C@H](Cn2cncn2)C[C@@H]2CN(c3ncccn3)CC[C@@H]21 : 20.1
19) Cc1cnc(N2CCC3(C2)C(=O)N(C)CCN3Cc2cccnc2)nc1 (centres undefined) : -50.6
20) Cc1cc(=O)[nH]cc1C(=O)N1Cc2ccccc2N(C)CC1C (centres undefined) : 52.6
21) Cc1cnn(CC2CN(Cc3nc(C)no3)CCO2)c1 (centres undefined) : 4.71
22) Cc1cc(C)n2ncc(CN3CCC(Cn4cc(CO)nn4)CC3)c2n1 : 20.1
23) CCN1CC[C@]2(CN(Cc3nccs3)C[C@H]2c2ccccc2)C1=O : 13.7
24) CN(CC1COc2ccccc2O1)C(=O)NCCCn1cccn1 (centres undefined) : -14.4
25) CN(Cc1cccnc1)CC1CC12CCN(Cc1nccs1)CC2 (centres undefined) : 45.8
26) Cc1nn(S(=O)(=O)c2ccc(Cl)cc2)c(C)c1C : 9.52
27) CN(C)[C@@H]1CCN(C(=O)CC2CC2)[C@H]1Cc1cnn(C)c1 : 4.27
28) Cc1cc(C)n2ncc(CN3C[C@@H](O)[C@H](Oc4ccccc4)C3)c2n1 : -5.71
29) Cc1nc(CN2CC(CO)Oc3ccccc32)sc1C (centres undefined) : -10.3
30) Cc1cc(N(C)CC2COc3ccccc3O2)nc(C)n1 (centres undefined) : 83.5
31) CC(C)N1[C@H](Cn2cncn2)C[C@@H]2CN(Cc3cccs3)CC[C@@H]21 : 57.5
32) CC(=O)N1[C@H](Cn2cncn2)C[C@@H]2CN(Cc3cccnc3)CC[C@@H]21 : 35.4
33) O=C(CCn1cccn1)N1CCC(c2nnc(-c3ccccn3)o2)CC1 : 44.9
34) CC(C)c1nc(C2CCCN(C(=O)c3ccc4c(c3)COC4)C2)no1 (centres undefined) : 1.75

----------
tested on: Plasmodium berghei; experiment: Screen against P. berghei liver stage (PbLuc), transformed with Luciferase, at 10uM; format: functional, HepG2; details: tested at 10 uM
Among all 69,000 compounds or so, about 8,600 (12%) showed an effect of 50% or more. What follows is part of a selection rich in strong results, with near analogues and random picks from the rest.
INHIBITION vs 20%: less than gives t; not less than gives f.

1) CN1CCN(S(=O)(=O)c2cccc(F)c2)Cc2cccnc21 : f
2) O=C(CSCC1CC1)N1CCc2[nH]nc(COc3ccccc3)c2C1 : t
3) COCC(=O)Nc1ccc(Sc2nncn2C)c(Cl)c1 : f
4) O=C(c1csnn1)N1CCc2[nH]nc(COc3cccc(Cl)c3)c2C1 : f
5) OCCN1CCN(Cc2cnc3c(-c4ccccc4)cnn3c2)CC1 : f
6) COc1c(CNC2CCOc3c(Cl)cccc32)c(C(C)C)nn1C (configuration not stated) : t
7) CC(C)c1nccn1C(C)C(=O)N1CCN(c2ccccc2Cl)CC1 (configuration not stated) : f
8) CCCNCc1ccc(OCc2ccc3c(c2)OCCO3)cc1 : f
9) O=C(N1CCOCC1)N1CCc2[nH]nc(COc3cccc(Cl)c3)c2C1 : f
10) CNC(=O)NC(=O)CCSc1ccccc1Cl : f
11) O=C(CCc1ccco1)N1CCc2[nH]nc(COc3ccccc3)c2C1 : f
12) CC(C)c1nn(C)c(Cl)c1CNC1CCOc2ccccc21 (configuration not stated) : f
13) COc1c(CNC2CCOc3c(Cl)cccc32)c(C)nn1C (configuration not stated) : f
14) Cc1c(C(C)N)cnn1-c1ccccn1 (configuration not stated) : t
15) CN(Cc1ccc(O)cc1)C(=O)NC1CCCN(c2ncccn2)C1 (configuration not stated) : t
16) Cc1ccc(C(CNC(=O)c2cc(=O)c3ccccc3[nH]2)N(C)C)cc1 (configuration not stated) : t
17) COc1c(CNC2CCc3cc(F)ccc32)c(C)nn1C (configuration not stated) : f
18) Cc1nnc2n1CCN(C(C(=O)N1CCCCC1)c1ccccc1)C2 (configuration not stated) : t
19) O=C(CCc1cccs1)N1CCc2[nH]nc(COc3ccccc3)c2C1 : f
20) O=C(CCn1cccc1)N1CCc2[nH]nc(COc3ccccc3)c2C1 : f
21) c1ccc(-c2cnn3cc(CN4CCC5(CCO5)CC4)cnc23)cc1 : f
22) COC(=O)c1c(Cl)c(C2CC2)nc2onc(C)c12 : f
23) CN1CCN(S(=O)(=O)c2ccccc2)Cc2cccnc21 : t
24) FC(F)(F)C1CN(Cc2cnc3c(-c4ccccc4)cnn3c2)CCO1 (configuration not stated) : f
25) O=C(c1cncs1)N1CCOCC(Cc2ccncn2)C1 (configuration not stated) : t
26) O=C(CN1CCCCCC1)NCc1ccc2[nH]c(=O)[nH]c2c1 : t
27) O=C(NCc1ccc2[nH]c(=O)[nH]c2c1)c1ccc(CN2CCCC2)o1 : f
28) Cc1cc2nc(SCC(=O)N3CCOCC3)n(C(C)C)c(=O)c2[nH]1 : f
29) O=C1CCN(Cc2cnc3c(-c4ccccc4)cnn3c2)CCN1 : f
30) CC(C)C(=O)Nc1ccc(Sc2nncn2C)c(Cl)c1 : f
31) COc1c(CNC2CCCOc3ccc(F)cc32)c(C)nn1C (configuration not stated) : t
32) CC(C)(C)c1nc(CN2CCOC(Cn3cccn3)C2)no1 (configuration not stated) : t
33) O=C1CN(Cc2cnc3c(-c4ccccc4)cnn3c2)CCCN1 : f
34) N#Cc1ccc(SCCC(=O)NC(N)=O)cc1 : t
35) CC(C)(C)NCc1ccc(OCc2ccc3c(c2)OCCO3)cc1 : t
36) CCn1c(SCC(=O)N2CCOCC2)nc2cc(C)[nH]c2c1=O : t
37) CCOC(C)C(=O)Nc1ccc(Sc2nncn2C)c(Cl)c1 (configuration not stated) : f
38) CCSCCC(=O)N1CCc2[nH]nc(COc3ccccc3)c2C1 : t
39) Cc1nc(C)c(C(=O)N2CCc3[nH]nc(COc4ccccc4)c3C2)s1 : f
40) O=C1N(C2CCOCC2)CCCC12CCN(c1ncccc1Cl)C2 (configuration not stated) : t
41) Cc1cccc(C(=O)N2CC(C(=O)NCC3CC3)C3(CCOCC3)C2)n1 (configuration not stated) : f
42) NC(=O)NC(=O)CCSc1ccccc1Cl : f

----------
Measured INHIBITION, listed per entry for reference.
tested on: Plasmodium berghei; experiment: Screen against P. berghei liver stage (PbLuc), transformed with Luciferase, at 10uM; type: functional, HepG2; settings: tested at 10 uM
Among all 69,000 compounds or so, about 8,600 (12%) showed an effect of 50% or more. Shown is part of a subset that was picked to be rich in strong results.
PROPERTY_LABEL: INHIBITION (%)

1. Cc1cc(SCC(N)=O)nc(-c2cccc(F)c2)n1 : 3.58
2. CC(=O)N(C)c1nc(CN2CCCC2c2cnn(C)c2)cs1 (stereo not given) : 50.3
3. Cc1nc(-c2ccccc2)sc1CSCCS(C)(=O)=O : 20.1
4. Cc1ccc(CN2CCc3c(COC(C)C)nn(C)c3C2)s1 : 22.2
5. Cc1nc(-c2ccccc2)sc1CSC(C)C(N)=O (stereo not given) : -48.3
6. c1cncc(N2CCCn3nnc(COCC4CC4)c3C2)c1 : 20.6
7. CCCc1nnc(N2CC[C@@](O)(C3CCOCC3)[C@H](C)C2)s1 : 60.3
8. COc1ccc(Cl)cc1CC(=O)N1CCN(CCO)CC1 : 38.1
9. Cc1nnc(N2CCCC2)c(C(N)=O)c1C : 6.24
10. Cc1nnc(N2CCNCC2)c(C(N)=O)c1C : 41.5
11. CCCc1nnc(N2CC[C@](C)(O)[C@H](C)C2)s1 : -50.3
12. CCN1CCN(CC(C)(O)c2cccc(C(F)(F)F)c2)CC1 (stereo not given) : 20.1
13. Cc1ccc(NC(=O)c2cnc(N3CCN(C)CC3)nc2C)cc1C : 43.8
14. Cc1cc(SCC(N)=O)nc(-c2ccc(F)cc2)n1 : -6.18
15. COc1cccc(C(=O)NC(C)CCN2CCOCC2)c1F (stereo not given) : 34.1
16. CC(=O)N1CCC(c2ncc3c(n2)CCN(C(=O)c2ccccc2)C3)C1 (stereo not given) : 1.5
17. CC(C)OCCS(=O)(=O)N1CCN(Cc2cccn2C)CC1 : 4.1
18. CCC(NC(=O)C(C)(C)C)c1ccccc1C (stereo not given) : 32.9
19. CN1CCOC(CNCC(=O)NCCc2ccc(F)cc2)C1 (stereo not given) : -2.27
20. CC(=O)N1CCCN(CC(C)(O)c2cccc(C(F)(F)F)c2)CC1 (stereo not given) : 64.5
21. Cc1ccc(CN2CCc3c(COCC4CC4)nn(C)c3C2)s1 : 59.3
22. Cc1cccc(-c2noc(CN3CCC(c4ccn[nH]4)CC3)n2)c1 : -39.6
23. O=C(NCC1(CO)CC1)NC(c1nccs1)C1CC1 (stereo not given) : -10.8
24. Cc1nc(-c2ccccc2)n(CC(=O)NC(C)(C)C)n1 : 16.8
25. CCn1cc(-n2cc3nc(N4CCN(C)CC4)[nH]cc-3c2=O)cn1 : -5.53
26. COc1ccccc1OCCc1cc(C2CCNC2)n[nH]1 (stereo not given) : 41.2
27. CNc1ccnc(N2C[C@@H](C)[C@](O)(C3CC3)C2)n1 : 39.9
28. Cc1ncncc1C(=O)N1CCCC(n2cccn2)C1 (stereo not given) : 2.97
29. CCCS(=O)(=O)CCN1CCN(C(C#N)c2ccccc2)CC1 (stereo not given) : -4.93
30. Cn1cc(C2CCCN2Cc2csc(C3CCCC3)n2)cn1 (stereo not given) : 42
31. CNC(=O)[C@@H]1CC[C@@H]2[C@@H](CCN2Cc2ccccc2F)O1 : 0.804
32. c1cncc(CN2CCCn3nnc(COCC4CC4)c3C2)c1 : 64.7
33. COCC1c2c(cnn2CC2CCOCC2)CCN1Cc1ccoc1 (stereo not given) : 14.4
34. Cc1cc(F)ccc1CCNC(=O)NCC(C)N1CCOCC1 (stereo not given) : 11.1
35. Cc1nc(-c2ccccc2)sc1CSCCC(N)=O : 60.8
36. c1ccc(-c2cc(CN3CCC(c4ccn[nH]4)CC3)on2)cc1 : 73.5
37. c1cc(CN2CCCn3nnc(COCC4CC4)c3C2)ccn1 : 42.1
38. Fc1cnc(N2CC[C@@H]3O[C@H](COCc4ccccn4)CC[C@@H]32)nc1 : -21.7
39. Cn1cc(C2CCCN2Cc2csc(-c3ccccc3)n2)cn1 (stereo not given) : -38.2
40. Cn1cc(-c2nc(C(=O)N3CCCC3Cn3cccn3)cs2)cn1 (stereo not given) : 40.2
41. CC(C)C(=O)N1CCCC1C(=O)Nc1ccc(F)c(F)c1 (stereo not given) : 21.7
42. CC(C)C(=O)N1CCC2(CCN2CC2CC2)C1 (stereo not given) : 8.85
43. Cc1cc(-c2nn3c(C4CC4)nnc3s2)on1 : -6.47
44. CC(=O)N1CCC(N2CCC(c3nc(C)cc(C)n3)C2)CC1 (stereo not given) : 24.8
45. c1cncc(N2CCCn3nnc(CN4CCOCC4)c3C2)c1 : 7.67
